Data credit: patent US4332818A

- Measurement protocol: in vivo
- Measurement parameters: mouse, po, mice

Compound	LD50 / mg/kg
CCC1(c2ccccc2)CCC(=O)NC1=O (stereo not shown)	580
